Data provenance is ChEMBL document CHEMBL4196006.

In this section, each of the compounds is paired with its reported cytotoxicity at 6 h, 10 µM.
assay.remarks: Cytotoxicity against human 786-O cells assessed as inhibition of mitochondrial viability at 10 uM after 6 hrs by CMXRos staining based assay relative to control
Assay type: cell-based, 786-0
condition.description: read-out: INH
Your answer is read as %, so omit the unit and give the number.

Recorded results for 5 compounds are shown here.
NC(=S)N/N=C/c1ccccc1O -1.49
COc1cccc(OC)c1/C=N/NC(N)=S -12.3
Cc1ccsc1/C=N/NC(N)=S 2.15
CN(C)c1ccc(/C=N/N=C(/N)S)c2ccccc12 -1.7
NC(=S)N/N=C/c1cccc(-c2ccccc2)c1 4.4

Please report the measured cytotoxicity at 6 h, 10 µM for "NC(=S)N/N=C/c1ccc2ncccc2c1"
-6.48

Please report the measured cytotoxicity at 6 h, 10 µM for "NC(=S)N/N=C/c1ccc(N)cc1"
-7.54
